# test.target: Adrenergic receptor alpha-2 (Rattus norvegicus, UniProt P22086+P19328+P22909)
# assay.text: Ability to displace [3H]rauwolscine from Alpha-2 adrenergic receptor in rat cortical membranes
# Format: cell membranes
experimental.endpoint: Ki (nM)

Examples with their reported Ki follow.
compound="CN(CCc1ccc2c(c1)OCO2)CC1CCCc2c1ccc1c2OCO1 (stereo not given)" units=nM assay_result=11
compound=C1=C(CC2=NCCN2)CCc2ccccc21 units=nM assay_result=4.17
compound="CN(CCc1ccc2c(c1)OCO2)CC1CCCc2ccccc21 (stereo not given)" units=nM assay_result=8.19
compound=COc1cccc2c1CCC[C@H]2CN(C)CCc1ccc2ccncc2c1 units=nM assay_result=6.07
compound=CN(CCc1ccc2c(c1)OCO2)C[C@@H]1CC[C@H]2CCOc3cccc1c32 units=nM assay_result=94.1

I. CCOc1cccc2c1CCC[C@H]2CN(C)CCc1ccc2c(c1)OCO2
II. COc1cccc2c1CCC[C@H]2CN(C)CCc1ccc2c(c1)CCN2S(C)(=O)=O
Between I and II , whose recorded Ki is greater? Answer = label.
II

P. COc1cccc2c1CCC[C@H]2CN(C)CCc1ccc2nccnc2c1
Q. COc1cccc2c1CCC[C@H]2CN(C)CCc1ccc2oc(O)nc2c1
Pick one: P or Q . Which one has the lower reported Ki? Label of pick, please.
P
(P: 1.81 nM, Q: 7.5 nM)

---

# test.target: Adrenergic receptor alpha-2 (Rattus norvegicus, UniProt P22086+P19328+P22909)
# assay.text: Ability to displace [3H]rauwolscine from Alpha-2 adrenergic receptor in rat cortical membranes
# Assay type: cell membranes
experimental.endpoint: Ki (nM)

Past entries and their recorded results:
smiles_text=C#CCN(CCc1ccc2c(c1)OCO2)C[C@@H]1CCCc2c(OC)cccc21 units=nM assay_result=184
smiles_text=COc1cccc2c1CCC[C@H]2CN(C)CCc1ccc2nc(O)oc2c1 units=nM assay_result=4.51
smiles_text=COc1cccc2c1CCC[C@H]2CN(C)CCc1ccc2c(c1)CCC2 units=nM assay_result=8.99
smiles_text=CN(CCc1ccc2c(c1)OCO2)C[C@@H]1CCCc2c1ccc1ccoc21 units=nM assay_result=4.88
smiles_text=CN(CCc1ccc2c(c1)OCO2)C[C@@H]1CCCc2c1ccc1c2OCC1 units=nM assay_result=5.57

A. COc1ccc2c(c1OC)CCC[C@H]2CN(C)CCc1ccc2c(c1)OCO2
B. COc1cccc2c1CCC[C@H]2CN(C)CCc1ccc2ncccc2c1
Could you tell me which of A and B has the lower Ki reading? Record your answer as the label of the chosen record.
B
(B: 3.91 nM, A: 15.5 nM)

---

# test.target: Sodium-dependent serotonin transporter (Rattus norvegicus, UniProt P31652)
# Sequence (P31652 whole entry): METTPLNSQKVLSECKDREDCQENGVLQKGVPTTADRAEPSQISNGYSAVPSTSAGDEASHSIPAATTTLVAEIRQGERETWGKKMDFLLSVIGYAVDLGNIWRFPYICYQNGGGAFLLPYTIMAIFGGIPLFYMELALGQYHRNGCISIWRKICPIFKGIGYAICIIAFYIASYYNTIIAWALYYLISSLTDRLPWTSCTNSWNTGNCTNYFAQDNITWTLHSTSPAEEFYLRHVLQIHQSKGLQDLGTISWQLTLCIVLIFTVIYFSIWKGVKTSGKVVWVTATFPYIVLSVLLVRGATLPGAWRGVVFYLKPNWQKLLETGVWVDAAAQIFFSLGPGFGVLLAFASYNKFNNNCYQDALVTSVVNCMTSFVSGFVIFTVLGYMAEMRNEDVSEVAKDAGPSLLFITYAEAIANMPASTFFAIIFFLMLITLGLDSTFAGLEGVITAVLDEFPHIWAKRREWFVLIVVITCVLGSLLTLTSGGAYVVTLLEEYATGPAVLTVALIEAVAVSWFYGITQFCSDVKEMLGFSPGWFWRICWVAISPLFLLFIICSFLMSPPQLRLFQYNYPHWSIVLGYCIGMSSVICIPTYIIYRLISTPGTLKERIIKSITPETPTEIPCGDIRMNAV
# assay.text: Inhibition of uptake of [3H]5-HT in synaptosomes from rat cortex
pIC50: −log10 of the molar value.
experimental.endpoint: pIC50

Recorded results for 6 compounds are shown here.
compound=COc1cccc2c1CCC[C@H]2CN(C)CCc1ccc2c(c1)CN(S(=O)(=O)C(F)(F)F)C2 assay_result=7.22
compound=COc1cccc2c1CCC[C@H]2CN(C)CCc1ccc2nc(O)oc2c1 assay_result=7.71
compound=CCOc1cccc2c1CCC[C@H]2CN(C)CCc1ccc2c(c1)OCO2 assay_result=6.70
compound=COc1cccc2c1CCC[C@H]2CN(C)CCc1ccc2c(c1)NCC2 assay_result=7.10
compound="COc1ccc2c(c1)C(CN(C)CCc1ccc3c(c1)OCO3)CCC2 (stereo not drawn)" assay_result=5.85
compound=COc1cccc2c1CCC[C@H]2CN(C)CCc1ccc2c(c1)OCO2 assay_result=7.90

P. CN(CCc1ccc2c(c1)OCO2)C[C@@H]1CCCc2c1ccc1c2OCC1
Q. COc1cccc2c1C(CN(C)CCc1ccc3c(c1)OCO3)CCC2 (stereo not drawn)
R. COc1cccc2c1CCC[C@H]2CN(C)CCc1ccc2c(c1)CN(S(C)(=O)=O)C2
Order the entries by their reported pIC50, beginning at the minimum. Field: ranking. Enter the labels in the order requested.
Q, P, R

I. C1=C(CC2=NCCN2)CCc2ccccc21
II. COc1cccc2c1CCC[C@H]2CN(C)CCc1ccc2cccnc2c1
Field: lower recorded pIC50 (choose I or II ) // return label of chosen record
I

1. COc1cccc2c1CCC[C@H]2CN(C)CCc1ccc2nc(Cl)sc2c1
2. COc1cccc2c1CCC[C@H]2CN(C)CCc1ccc2c(c1)CCN2S(=O)(=O)C(F)(F)F
Just curious, which one has the larger pIC50 reading, 1 or 2 ? Could you answer with the label of the item you picked?
1

---

# test.target: Sodium-dependent serotonin transporter (Rattus norvegicus)
# assay.text: Inhibition of uptake of [3H]5-HT in synaptosomes from rat cortex
pIC50: −log10 of the molar value.
experimental.endpoint: pIC50

molecule=CCN(CCc1ccc2c(c1)OCO2)C[C@@H]1CCCc2c(OC)cccc21 test_target="Sodium-dependent serotonin transporter (Rattus norvegicus)" experimental_endpoint=pIC50 assay_result=6.80
molecule="COc1cccc2c1CCCC2CN(C)CCc1ccc2c(c1)OCO2 (centres undefined)" test_target="Sodium-dependent serotonin transporter (Rattus norvegicus)" experimental_endpoint=pIC50 assay_result=7.69

A. COc1cccc2c1CCC[C@H]2CN(C)CCc1ccc2ccncc2c1
B. CN(CCc1ccc2c(c1)OCO2)C[C@@H]1CC[C@@H]2CCOc3cccc1c32
Parameter check: reported pIC50 is higher for which label, A or B ? Kindly give the label for the entry you pick.
A

---

# test.target: Adrenergic receptor alpha-2 (Rattus norvegicus, UniProt P22086+P19328+P22909)
# assay.text: Ability to displace [3H]rauwolscine from Alpha-2 adrenergic receptor in rat cortical membranes
# Format: cell membranes
experimental.endpoint: Ki (nM)

molecule="CN(CCc1ccc2c(c1)OCO2)CC1CCCc2c(NS(C)(=O)=O)cccc21 (stereo unspecified)" test_target="Adrenergic receptor alpha-2 (Rattus norvegicus, UniProt P22086+P19328+P22909)" experimental_endpoint=Ki units=nM assay_result=19
molecule=COc1cccc2c1CCC[C@H]2CN(C)CCc1ccc2c(c1)CNC2 test_target="Adrenergic receptor alpha-2 (Rattus norvegicus, UniProt P22086+P19328+P22909)" experimental_endpoint=Ki units=nM assay_result=5.99

A. COc1cccc2c1CCC[C@H]2CN(C)CCc1ccc2c(c1)COC2
B. COc1cccc2c1CCC[C@H]2CN(CCc1ccc2c(c1)OCO2)CC1CC1
Returns the identifier with the smallest measured Ki among A and B . Indicate your choice by writing its label.
A

A. COc1cccc2c1CCC[C@H]2CN(C)CCc1ccc2c(c1)OCC2
B. COc1cccc2c1CCC[C@H]2CN(C)CCc1ccc2nc(C)oc2c1
I would appreciate it if you could say which entry, A or B , has the lower Ki value. # answer = label of selected item
A
(A: 1.88 nM, B: 9.27 nM)

---

# test.target: Sodium-dependent serotonin transporter (Rattus norvegicus, UniProt P31652)
# assay.text: Inhibition of uptake of [3H]5-HT in synaptosomes from rat cortex
experimental.endpoint: IC50 (nM)

Solved cases below.
compound=COc1cccc2c1CCC[C@H]2CN(C)CCc1ccc2c(c1)CCS2 experimental_endpoint=IC50 assay_result=24.3
compound="CN(CCc1ccc2c(c1)OCO2)CC1CCCc2c(O)cccc21 (stereo not given)" experimental_endpoint=IC50 assay_result=1240
compound=COc1cccc2c1CCC[C@H]2CN(C)CCc1ccc2oc(O)nc2c1 experimental_endpoint=IC50 assay_result=68.3
compound=COc1cccc2c1CCC[C@H]2CN(C)CCc1ccc2c(c1)CCC2 experimental_endpoint=IC50 assay_result=20.5
compound=COc1cccc2c1CCC[C@H]2CN(C)CCc1ccc2nc(N)sc2c1 experimental_endpoint=IC50 assay_result=9.47

P. CN(CCc1ccc2c(c1)OCO2)CC1CCCc2c(NS(C)(=O)=O)cccc21 (stereo not given)
Q. CN(CCc1ccc2c(c1)OCO2)C[C@@H]1CCCc2c1ccc1ccoc21
R. COc1cccc2c1CCC[C@H]2CN(C)CCc1ccc2ocnc2c1
S. COc1cccc2c1CCC[C@H]2CN(C)CCc1ccc2nc(C)oc2c1
T. COc1cccc2c1CCC[C@H]2CN(C)CCc1ccc2c(c1)COC2
Would you mind ranking these compounds by ascending IC50? Provide the ranking by listing each label in its place in the requested order.
R, S, Q, T, P
(R: 16.7 nM, S: 42.8 nM, Q: 101 nM, T: 229 nM, P: 658 nM)

I. COc1cccc2c1CCC[C@H]2CN(C)CCc1ccc2c(c1)CCN2S(C)(=O)=O
II. COc1cccc2c1CCC[C@H]2CN(C)CCc1ccc2nc(C)sc2c1
III. COc1cccc2c1CCC[C@H]2CN(C)CCc1ccc2c(c1)CCO2
IV. COc1cccc2c1CCC[C@H]2CN(C)CCc1ccc2c(c1)N(S(=O)(=O)C(F)(F)F)CC2
V. COc1cccc2c1CCC[C@H]2CN(C)CCc1ccc2ncsc2c1
Output the entries ranked by IC50 from maximum down to minimum. Would you mind listing the labels in the order requested?
IV, II, I, III, V
(IV: 183 nM, II: 86.7 nM, I: 35 nM, III: 14.6 nM, V: 8.94 nM)
